Molecular target: human AXL (473-end) (Homo sapiens, UniProt P30530)
Construct: human AXL (473-end); purchased SignalChem, Canada
Sequence (P30530 473-894 limits assumed): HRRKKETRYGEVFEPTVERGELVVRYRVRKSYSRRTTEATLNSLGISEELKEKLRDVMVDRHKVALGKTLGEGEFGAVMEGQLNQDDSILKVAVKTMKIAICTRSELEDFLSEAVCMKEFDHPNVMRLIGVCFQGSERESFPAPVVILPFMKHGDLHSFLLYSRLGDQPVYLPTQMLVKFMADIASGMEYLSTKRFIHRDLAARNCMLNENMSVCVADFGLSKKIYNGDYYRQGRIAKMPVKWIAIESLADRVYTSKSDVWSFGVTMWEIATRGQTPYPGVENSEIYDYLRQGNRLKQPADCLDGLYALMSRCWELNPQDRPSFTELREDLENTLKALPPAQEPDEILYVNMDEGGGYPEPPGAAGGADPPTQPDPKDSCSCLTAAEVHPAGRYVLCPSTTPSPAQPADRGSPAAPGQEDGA
Assay: HTRF kinase activity biochemical assay, AXL
Conditions: 10 μM ATP, 30 minutes pre-incubation
pIC50: −log10 of the molar value.
Hi there, I'd appreciate the recorded pIC50 for every entry that follows.

Record summary for CC1(C)CN(C2CCN(CCO)CC2)c2ccc(-c3ccc(CO[C@H]4COC[C@@H]4NC(=O)c4cc(-c5cncc(F)c5)cnc4N)cc3)cc21 [Example 44] : reported pIC50 = 6.00 to 7.00

Record summary for CN1CCN([C@H]2CC(C)(C)c3cc(-c4ccc(CO[C@H]5CCC[C@@H]5NC(=O)c5cc(-c6cccnc6F)cnc5N)cc4)ccc32)CC1 [Example 150] : reported pIC50 = > 8.00

Record summary for CCCC1(C)CN(C2CCN(CCO)CC2)c2ccc(-c3ccc(CO[C@H]4CCC[C@@H]4NC(=O)c4cc(-c5cnn(C)c5)cnc4N)cc3)cc21 (mixture of isomers) [Example 39] : reported pIC50 = > 8.00

Record summary for Cn1cc(-c2cnc(N)c(C(=O)N[C@H]3COC[C@@H]3OCc3ccc(-c4ccc5c(c4)C(C)(C)CN5C4CCN(CCO)CC4)cc3)n2)cn1 [Example 71] : reported pIC50 = 7.00 to 8.00

Record summary for CN1CCN([C@H]2CCc3cc(-c4ccc(CO[C@H]5CCC[C@@H]5NC(=O)c5cc(-c6ccc(C#N)nc6)cnc5N)cc4)ccc32)CC1 [Example 154] : reported pIC50 = > 8.00

Record summary for Cn1cc(-c2cnc(N)c(C(=O)N[C@H]3CCC[C@@H]3OCc3ccc(-c4ccc5c(c4)CC[C@@H]5N4CCN(CC(O)CO)CC4)cc3)c2)cn1 (stereo partly drawn) [Example 98] : reported pIC50 = > 8.00

Record summary for Nc1ncc(-c2ccc(F)nc2)cc1C(=O)N[C@H]1CCC[C@@H]1OCc1ccc(-c2ccc3c(c2)CC[C@@H]3N2CCN(CC(O)CO)CC2)cc1 (stereo partly drawn) [Example 100] : reported pIC50 = > 8.00

Record summary for Cn1ccc(-c2cnc(N)c(C(=O)N[C@H]3CCC[C@@H]3OCc3ccc(-c4ccc5c(c4)CC(F)(F)C5N4CCN(CC(O)CO)CC4)cc3)c2)cc1=O (stereo partly drawn) [Example 63] : reported pIC50 = > 8.00

Record summary for Nc1ncc(-c2ccns2)cc1C(=O)N[C@H]1CCC[C@@H]1OCc1ccc(-c2ccc3c(c2)CC[C@@H]3N2CCN(CCO)CC2)cc1 [Example 174] : reported pIC50 = > 8.00

Record summary for Cc1nc(-c2cnc(N)c(C(=O)N[C@H]3CCC[C@@H]3OCc3ccc(-c4ccc5c(c4)CC[C@@H]5N4CCN(CCO)CC4)cc3)c2)cs1 [Example 180] : reported pIC50 = > 8.00

Record summary for Nc1ncc(-c2cccnc2F)cc1C(=O)N[C@H]1CCC[C@@H]1OCc1ccc(-c2ccc3c(c2)CCC[C@@H]3N2CCN(CCO)CC2)cc1 [Example 165] : reported pIC50 = > 8.00

Record summary for Cc1csc(-c2cnc(N)c(C(=O)N[C@H]3CCC[C@@H]3OCc3ccc(-c4ccc5c(c4)CC[C@@H]5N4CCN(CCO)CC4)cc3)c2)n1 [Example 181] : reported pIC50 = > 8.00

Cited source: patent US20260146035A1
